These measurements were taken from the kinase profiling compilation of Christmann-Franck et al. (2016).

biological target: CAMK4 (human); test: radiometric filter-binding kinase assay, Kinase HotSpot; conditions: compound 0.5 µM; ATP 10 µM
Recorded residual activity by entry
Supply the numeric figure in %, leaving out any unit text.

Solved cases below.
[
  {
    "COMPOUND": "Nc1nnc2[nH]c3ccccc3nc1-2",
    "residual activity (%)": 104
  },
  {
    "COMPOUND": "O=C(O)/C=C/c1cc(Br)c(Br)c(Br)c1Br",
    "residual activity (%)": 103
  }
]

Recorded residual activity for Nc1nccc(-c2c(-c3ccc(F)cc3)ncn2C2CCNCC2)n1 , please?
103

Recorded residual activity for COc1ccc(CNC(=O)Nc2ncc([N+](=O)[O-])s2)cc1 , please?
96.7

Recorded residual activity for O=C1Nc2ccccc2/C1=C1/Nc2ccccc2/C1=N\OCCC(O)CO (configuration not stated) , please?
93.6

Recorded residual activity for CC(=O)O/N=C1\C(=C2\C(=O)Nc3cc(Br)ccc32)Nc2ccccc21 , please?
86.1

Recorded residual activity for COc1cc2ncc(-c3ccccc3)nc2cc1OC , please?
95.2

Recorded residual activity for COc1ccc(OC)c2c(=S)c3ccccc3[nH]c12 , please?
101

Recorded residual activity for CCn1cnc2c(Nc3cccc(Cl)c3)nc(N[C@@H]3CCCC[C@@H]3N)nc21 , please?
103

Recorded residual activity for CN(C)C[C@H]1CCn2c(c(C3=C(c4cn(C)c5ccccc45)C(=O)NC3=O)c3ccccc32)C1 , please?
95.5

Recorded residual activity for CN([C@@H](Cc1ccc(OS(=O)(=O)c2cccc3cnccc23)cc1)C(=O)N1CCN(c2ccccc2)CC1)S(=O)(=O)c1cccc2cnccc12 , please?
102

Recorded residual activity for CCN(CC)CCCCN1c2ccccc2Oc2ccc(Cl)cc21 , please?
98.9

Recorded residual activity for Cc1nc2cc3nc(-c4cccs4)cnc3cc2n1C , please?
94.7

Recorded residual activity for O=C1NC(=O)/C(=C\c2ccc3nccnc3c2)S1 , please?
106

Recorded residual activity for COc1cc2ncnc(N3CCN(C(=O)Nc4ccc(Oc5ccccc5)cc4)CC3)c2cc1OC , please?
102

###

target: FYN (human); assay: radiometric filter-binding kinase assay, Kinase HotSpot; conditions: compound 0.5 µM; ATP 10 µM
Recorded residual activity by entry
Supply the numeric figure in %, leaving out any unit text.

Solved cases below.
[
  {
    "SMILES NOTATION": "CCN(CC)CCCCN1c2ccccc2Oc2ccc(Cl)cc21",
    "residual activity (%)": 107
  },
  {
    "SMILES NOTATION": "Nc1nccc(-c2c(-c3ccc(F)cc3)ncn2C2CCNCC2)n1",
    "residual activity (%)": 91.1
  },
  {
    "SMILES NOTATION": "CC(=O)O/N=C1\\C(=C2\\C(=O)Nc3cc(Br)ccc32)Nc2ccccc21",
    "residual activity (%)": 20.9
  },
  {
    "SMILES NOTATION": "CC(C)c1nn(-c2c(Cl)cccc2Cl)c2nc(Cc3ccc(OCCO)cc3)nc(O)c12",
    "residual activity (%)": 102
  }
]

Let us move to another entry and its residual activity.
Recorded residual activity for Cn1nc2c3c(cccc31)C(=O)c1ccccc1-2 , please?
93.8

###

biological target: CDK7 CCNH MNAT1 (human) (UniProt P50613+P51948+P51946); experiment: radiometric filter-binding kinase assay, Kinase HotSpot; details: compound 0.5 µM; ATP 10 µM
Sequence (P50613 whole entry, looked up): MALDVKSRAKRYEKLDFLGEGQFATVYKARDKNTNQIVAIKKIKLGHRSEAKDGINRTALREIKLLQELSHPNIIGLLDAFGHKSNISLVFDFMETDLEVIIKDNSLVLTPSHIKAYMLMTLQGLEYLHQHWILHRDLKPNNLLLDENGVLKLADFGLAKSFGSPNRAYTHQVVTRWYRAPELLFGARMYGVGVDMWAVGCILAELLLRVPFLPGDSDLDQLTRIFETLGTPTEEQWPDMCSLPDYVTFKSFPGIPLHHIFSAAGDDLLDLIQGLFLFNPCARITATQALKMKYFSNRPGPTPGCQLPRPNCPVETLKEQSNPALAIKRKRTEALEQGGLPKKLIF
Sequence (P51946 whole entry, looked up): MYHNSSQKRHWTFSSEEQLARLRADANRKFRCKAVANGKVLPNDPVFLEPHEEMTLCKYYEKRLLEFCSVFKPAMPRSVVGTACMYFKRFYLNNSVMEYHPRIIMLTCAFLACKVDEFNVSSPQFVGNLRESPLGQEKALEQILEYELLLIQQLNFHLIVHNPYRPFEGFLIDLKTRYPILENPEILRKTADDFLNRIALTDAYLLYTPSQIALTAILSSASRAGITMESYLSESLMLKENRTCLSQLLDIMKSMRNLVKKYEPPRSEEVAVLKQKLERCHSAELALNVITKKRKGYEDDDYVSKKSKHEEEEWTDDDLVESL
Sequence (P51948 whole entry, looked up): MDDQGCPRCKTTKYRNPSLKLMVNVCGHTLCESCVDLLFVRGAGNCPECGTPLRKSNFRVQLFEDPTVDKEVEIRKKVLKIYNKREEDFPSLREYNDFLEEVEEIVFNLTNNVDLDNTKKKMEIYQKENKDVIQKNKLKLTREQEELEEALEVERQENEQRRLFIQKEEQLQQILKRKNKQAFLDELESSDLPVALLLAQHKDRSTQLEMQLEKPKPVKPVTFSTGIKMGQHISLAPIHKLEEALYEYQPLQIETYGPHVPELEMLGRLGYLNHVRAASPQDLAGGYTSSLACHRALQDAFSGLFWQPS
Recorded residual activity by entry
Supply the numeric figure in %, leaving out any unit text.

Solved cases below.
[
  {
    "COMPOUND": "O=C1NC(=O)/C(=C\\c2ccc3nccnc3c2)S1",
    "UNIT SYMBOL": "%",
    "ENDPOINT VALUE": 85.2
  },
  {
    "COMPOUND": "Cc1ccc(NC(=O)c2ccc(CN3CCN(C)CC3)cc2)cc1Nc1nccc(-c2cccnc2)n1",
    "UNIT SYMBOL": "%",
    "ENDPOINT VALUE": 101
  }
]

Recorded residual activity for CC(C)c1nn(-c2c(Cl)cccc2Cl)c2nc(Cc3ccc(OCCO)cc3)nc(O)c12 , please?
60.3

Recorded residual activity for CN(C)C[C@H]1CCn2c(c(C3=C(c4cn(C)c5ccccc45)C(=O)NC3=O)c3ccccc32)C1 , please?
83

###

target: MAP3K9 (human); experiment: radiometric filter-binding kinase assay, Kinase HotSpot; conditions: compound 0.5 µM; ATP 10 µM
Recorded residual activity by entry
Supply the numeric figure in %, leaving out any unit text.

[
  {
    "COMPOUND": "COc1cc2ncc(-c3ccccc3)nc2cc1OC",
    "UNIT SYMBOL": "%",
    "residual activity": 85.4
  },
  {
    "COMPOUND": "COc1cc2ncnc(N3CCN(C(=O)Nc4ccc(Oc5ccccc5)cc4)CC3)c2cc1OC",
    "UNIT SYMBOL": "%",
    "residual activity": 100
  },
  {
    "COMPOUND": "Oc1ccc(Nc2nc(-c3ccc(Cl)cc3)cs2)cc1",
    "UNIT SYMBOL": "%",
    "residual activity": 80.9
  },
  {
    "COMPOUND": "CC(C)c1nn(-c2c(Cl)cccc2Cl)c2nc(Cc3ccc(OCCO)cc3)nc(O)c12",
    "UNIT SYMBOL": "%",
    "residual activity": 95.7
  },
  {
    "COMPOUND": "Cn1cnc2cc3c(Nc4cccc(Br)c4)ncnc3cc21",
    "UNIT SYMBOL": "%",
    "residual activity": 79.8
  }
]

Recorded residual activity for O=C1Nc2ccccc2/C1=C1/Nc2ccccc2/C1=N\OCCC(O)CO (stereo not given) , please?
7.06

Recorded residual activity for O=C1NC(=O)C(c2c[nH]c3ccccc23)=C1c1c[nH]c2ccccc12 , please?
55.4

Recorded residual activity for O=C1Cc2c([nH]c3ccc(Br)cc23)-c2ccccc2N1 , please?
64.6

Recorded residual activity for CN([C@@H](Cc1ccc(OS(=O)(=O)c2cccc3cnccc23)cc1)C(=O)N1CCN(c2ccccc2)CC1)S(=O)(=O)c1cccc2cnccc12 , please?
104

Recorded residual activity for O=C(CCCc1ccc(-c2ccccc2F)cc1)Nc1ccc(O)cc1 , please?
100

###

Recorded residual activity by entry
biological target: CDK5 CDK5R1 p25 (human) (UniProt Q00535+Q15078); test: radiometric filter-binding kinase assay, Kinase HotSpot; details: compound 0.5 µM; ATP 10 µM
Sequence (Q00535 whole entry, looked up): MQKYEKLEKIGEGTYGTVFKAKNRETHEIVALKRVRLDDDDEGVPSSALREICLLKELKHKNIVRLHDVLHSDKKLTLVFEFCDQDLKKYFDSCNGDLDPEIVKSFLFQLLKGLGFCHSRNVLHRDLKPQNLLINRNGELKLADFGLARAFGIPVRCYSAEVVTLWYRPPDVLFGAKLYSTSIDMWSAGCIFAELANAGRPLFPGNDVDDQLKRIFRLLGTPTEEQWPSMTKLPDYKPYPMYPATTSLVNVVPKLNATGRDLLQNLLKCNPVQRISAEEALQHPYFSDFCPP
Sequence (Q15078 whole entry, looked up): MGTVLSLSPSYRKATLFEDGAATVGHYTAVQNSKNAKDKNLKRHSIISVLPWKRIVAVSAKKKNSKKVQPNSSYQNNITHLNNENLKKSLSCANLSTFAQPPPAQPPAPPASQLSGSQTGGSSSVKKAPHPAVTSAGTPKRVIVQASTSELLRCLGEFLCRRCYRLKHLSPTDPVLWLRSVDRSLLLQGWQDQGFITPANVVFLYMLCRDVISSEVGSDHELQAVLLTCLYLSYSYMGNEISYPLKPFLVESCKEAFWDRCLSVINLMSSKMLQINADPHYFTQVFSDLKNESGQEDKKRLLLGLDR

Recorded residual activity for O=C(CCCc1ccc(-c2ccccc2F)cc1)Nc1ccc(O)cc1 , please?
94.6%

Recorded residual activity for CC(C)[C@H](CO)Nc1nc(Nc2cc(N)cc(Cl)c2)c2ncn(C(C)C)c2n1 , please?
3.31%

Recorded residual activity for CCn1cnc2c(Nc3cccc(Cl)c3)nc(N[C@@H]3CCCC[C@@H]3N)nc21 , please?
5.16%

###

biological target: CAMKK2 (human); assay: radiometric filter-binding kinase assay, Kinase HotSpot; conditions: compound 0.5 µM; ATP 10 µM
Recorded residual activity by entry
Supply the numeric figure in %, leaving out any unit text.

[
  {
    "SMILES NOTATION": "O=C1Nc2ccccc2/C1=C1\\Nc2ccccc2\\C1=N/O",
    "residual activity, %": 66.8
  },
  {
    "SMILES NOTATION": "O=C1NC(=O)/C(=C\\c2ccc3nccnc3c2)S1",
    "residual activity, %": 72.9
  },
  {
    "SMILES NOTATION": "Cn1nc2c3c(cccc31)C(=O)c1ccccc1-2",
    "residual activity, %": 74.9
  },
  {
    "SMILES NOTATION": "CCn1cnc2c(Nc3cccc(Cl)c3)nc(N[C@@H]3CCCC[C@@H]3N)nc21",
    "residual activity, %": 86.1
  },
  {
    "SMILES NOTATION": "Cc1nc2cc3nc(-c4cccs4)cnc3cc2n1C",
    "residual activity, %": 112
  }
]

Let us move to another entry and its residual activity.
Recorded residual activity for O=C1NC(=O)C(c2c[nH]c3ccccc23)=C1c1c[nH]c2ccccc12 , please?
92.8

###

biological target: NLK (human) (UniProt Q9UBE8); assay: radiometric filter-binding kinase assay, Kinase HotSpot; conditions: compound 0.5 µM; ATP 10 µM
Sequence (Q9UBE8 whole entry, looked up): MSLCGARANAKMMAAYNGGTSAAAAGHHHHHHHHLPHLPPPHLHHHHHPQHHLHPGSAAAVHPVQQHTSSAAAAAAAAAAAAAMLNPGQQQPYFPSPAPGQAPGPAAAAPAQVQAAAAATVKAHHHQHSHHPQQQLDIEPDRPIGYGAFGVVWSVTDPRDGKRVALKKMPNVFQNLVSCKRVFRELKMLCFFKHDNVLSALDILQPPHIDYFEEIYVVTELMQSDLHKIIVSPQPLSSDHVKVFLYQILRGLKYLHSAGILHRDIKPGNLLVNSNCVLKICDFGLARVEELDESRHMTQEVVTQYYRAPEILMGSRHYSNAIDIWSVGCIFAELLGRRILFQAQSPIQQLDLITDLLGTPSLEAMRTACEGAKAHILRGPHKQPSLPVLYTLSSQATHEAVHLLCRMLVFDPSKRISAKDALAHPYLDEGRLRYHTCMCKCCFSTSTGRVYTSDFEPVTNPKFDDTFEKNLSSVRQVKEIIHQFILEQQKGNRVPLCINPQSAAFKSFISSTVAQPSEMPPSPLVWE
Recorded residual activity by entry
Supply the numeric figure in %, leaving out any unit text.

[
  {
    "SMILES NOTATION": "Nc1nnc2[nH]c3ccccc3nc1-2",
    "residual activity / %": 95.2
  }
]

Can you look up residual activity on NLK (human) (UniProt Q9UBE8) for O=C1Cc2c([nH]c3ccc(Br)cc23)-c2ccccc2N1 ?
98.7

Can you look up residual activity on NLK (human) (UniProt Q9UBE8) for CC(=O)O/N=C1\C(=C2\C(=O)Nc3cc(Br)ccc32)Nc2ccccc21 ?
106

Can you look up residual activity on NLK (human) (UniProt Q9UBE8) for CCN(CC)CCCCN1c2ccccc2Oc2ccc(Cl)cc21 ?
101

Can you look up residual activity on NLK (human) (UniProt Q9UBE8) for COc1ccc(OC)c2c(=S)c3ccccc3[nH]c12 ?
98.8
